target: Beta-galactosidase (Escherichia coli) (UniProt Q8VNN2); experiment: potency against CXCR6 with APJ panel – cell-based, beta-arrestin, DiscoveRx, uHTS hits, dose response (AID 624129); details: CXCR6 beta-arrestin (DiscoveRx) antagonist cell assay, b-galactosidase, dose range 1
Sequence (Q8VNN2 whole entry, looked up): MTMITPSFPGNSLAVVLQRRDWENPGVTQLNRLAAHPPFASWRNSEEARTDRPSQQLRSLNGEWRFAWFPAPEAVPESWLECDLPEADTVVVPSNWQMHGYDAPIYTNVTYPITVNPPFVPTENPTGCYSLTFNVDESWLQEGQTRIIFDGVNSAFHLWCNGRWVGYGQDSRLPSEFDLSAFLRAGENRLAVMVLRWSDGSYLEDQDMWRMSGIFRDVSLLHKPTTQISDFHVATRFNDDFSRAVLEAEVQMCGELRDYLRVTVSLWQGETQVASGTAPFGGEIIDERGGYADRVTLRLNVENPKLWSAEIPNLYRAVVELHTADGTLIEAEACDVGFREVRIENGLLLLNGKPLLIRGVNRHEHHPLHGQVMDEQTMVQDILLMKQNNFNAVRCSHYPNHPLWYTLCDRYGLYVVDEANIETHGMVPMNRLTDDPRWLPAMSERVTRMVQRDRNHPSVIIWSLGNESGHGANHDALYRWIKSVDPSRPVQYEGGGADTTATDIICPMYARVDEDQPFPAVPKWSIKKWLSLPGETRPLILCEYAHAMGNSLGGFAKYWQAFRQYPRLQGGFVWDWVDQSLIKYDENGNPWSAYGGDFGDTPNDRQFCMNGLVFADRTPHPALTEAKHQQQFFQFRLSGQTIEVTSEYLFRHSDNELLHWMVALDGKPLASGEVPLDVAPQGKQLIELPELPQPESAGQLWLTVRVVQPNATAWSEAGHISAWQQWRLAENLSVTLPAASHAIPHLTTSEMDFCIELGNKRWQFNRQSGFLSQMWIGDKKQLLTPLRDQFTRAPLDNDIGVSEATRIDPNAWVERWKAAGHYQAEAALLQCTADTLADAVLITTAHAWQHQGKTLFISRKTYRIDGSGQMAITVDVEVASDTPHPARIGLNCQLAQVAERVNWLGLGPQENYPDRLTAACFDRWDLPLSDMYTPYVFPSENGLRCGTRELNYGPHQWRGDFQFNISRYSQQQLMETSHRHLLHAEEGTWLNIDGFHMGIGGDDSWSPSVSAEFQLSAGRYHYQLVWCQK
Active and inactive are the calls of the source. How the calls were made is not given here.
Outcome codes: active, inactive

COCc1cc(=O)[nH]c(Nc2nc3ccc(C)cc3o2)n1: inactive
COc1ccc(C(=O)/C(=C\c2ccco2)N2C=CC=CC2=C(C#N)C#N)cc1: inactive
Cc1ccc(C(=O)Sc2cccccc2=O)cc1: inactive
COc1cc(/C=C/c2ccc3cccc(O)c3n2)cc(OC)c1OC: inactive
O=c1cc(CSc2ccc(Cl)cc2)nc(-c2ccccn2)[nH]1: inactive
O=S(=O)(/C=C/C=C/S(=O)(=O)c1ccccc1)c1ccccc1: inactive
COc1ccc(Nc2ccc([N+](=O)[O-])c3nonc23)c(OC)c1: inactive
CC(=O)/C(=N\Nc1ccc(Cl)cc1Cl)Sc1cccc2cccnc12: inactive
COc1cc(/C=C/c2ccc3c(Br)cc(Br)c(O)c3n2)ccc1O: inactive
COc1ccc(C)c(-n2c(=O)n(Cc3ccccc3)c(=O)c3[nH]cnc32)c1: active
C=C1CC2(OC1=O)c1ccccc1CCc1ccccc12: inactive
Cc1nnc(Sc2cc(NCCCO)c([N+](=O)[O-])c3nonc23)s1: inactive
O=C(Nc1nnc(SCc2ccc(F)cc2)s1)c1ccccn1: inactive
O=[N+]([O-])/C=C/c1c(Cl)cccc1Cl: inactive
O=C1C=CC(=O)N1c1cccc(-c2ccccc2)c1: inactive
C/C(=N\NC(=O)Cc1ccc(Cl)cc1)c1ccccn1: inactive
CCO[C@@H]1OC(C(=O)N2CCN(Cc3ccccc3)CC2)=C[C@H](c2ccc(Br)cc2)[C@H]1CCCO: inactive
O=C1N[C@H](Cc2ccccc2)COC(=O)[C@H](Cc2ccc(F)cc2)CC/C=C/C[C@H]1CC(=O)N(CCO)Cc1ccccc1: inactive
CS(=O)(=O)c1ncc(Cl)c(C(=O)Nc2ccc3ccccc3c2)n1: inactive
